B1: TPR t1 (parent)
chain: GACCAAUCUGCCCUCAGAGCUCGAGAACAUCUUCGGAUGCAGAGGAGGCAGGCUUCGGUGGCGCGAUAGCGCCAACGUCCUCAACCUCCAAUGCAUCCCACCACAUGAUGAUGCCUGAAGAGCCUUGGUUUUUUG

Variants of: B1
Measurement Description: polymerase ribozyme fitness, log enrichment relative to wild type (log ratio); higher = more active; in vitro selection for triplet polymerase activity
Here the recorded polymerase ribozyme fitness (log ratio) is given for each entry.
Answer with a bare number; do not write a unit.

U7G G71U C97G G120U U132C = -3.27
G71U C99U U129A = -5.39
C104U U106A = -0.522
A43U G61U = -2.41
G45C G128C = -4.18

// Input: G42U G47U G120U . Output its polymerase ribozyme fitness (log ratio) only. -1.57

// Input: G48A C124U . Output its polymerase ribozyme fitness (log ratio) only. 1.15
